Test system: Pseudomonas corrugata
RUN PARAMETERS: Table 4, incubation period 2d; LB-medium, 27°C
Ends that are not written are not given here.
Field: MIC. Provide a value for each of the substances that follow.
One number for each entry, in µg/mL.

Lab note: each substance below needs its MIC filled in.
1. RKKRVKLLKRLV-NH2 [SP1-2]
2. KRRKAIKILKLIAKLIRKKR-NH2 [SP13-8]

-- reply
1: 0.5; 2: 0.25

-- ask Reported MIC for RKKKFKFFKRLF-NH2 [SP1-12] : what is it?
-- reply 0.25

###

System: Botrytis cinerea
RUN PARAMETERS: 2% malt extract medium, 1.5–2×10^3 spores/ml, room temperature, 3d, visual screening; lowest concentration with no visible growth; at least two independent replicates
Ends that are not written are not given here.
Could you please report measured MIC for the items listed next?

Observe how each entry below is paired with its result.
# SUBSTANCE, TARGET, RESULT
rows = [
    ("LRALAKALKHKL-NH2 [SP11]", "Botrytis cinerea", ">100 µg/mL"),
    ("RKRFARFAKRAV-NH2 [SP3]", "Botrytis cinerea", ">100 µg/mL"),
]

Look at each substance and report its MIC.
1. KKKAARALKRAL-NH2 [SP4]
2. LRFLKKILKHLF-NH2 [SP10-D]
3. KRKLIFLAAFLAALALFKKR-NH2 [SP15]
4. KRKLTLVFGVMAGVIGTKKR-NH2 [SP14]

-- reply
1. >100 µg/mL
2. 10 µg/mL
3. >100 µg/mL
4. >100 µg/mL

Hello, I would appreciate it if you could give MIC for each entry below.
1. KRRLIARILRLAARALVKKR-NH2 [SP13]
2. KRRLAAFRAFRGALKSVLKK-NH2 [SP16]
3. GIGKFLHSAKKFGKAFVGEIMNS [Magainin II, reference compound]
4. LLIKFLKRFIKH-NH2 [SP7-D]
5. RKKRLKLLKRLV-NH2 [SP1]
6. RKKRLKLLKR LV-NH2 [SP1-D]
7. LRFLKKILKHLF-NH2 [SP10]

-- reply
1. >100 µg/mL
2. >100 µg/mL
3. 64 µg/mL
4. 20 µg/mL
5. >100 µg/mL
6. > 40 µg/mL
7. >100 µg/mL

-- ask Any idea what MIC was measured for LKALRKALKHLA-NH2 [SP12] ?
-- reply >100 µg/mL

###

Give measured MIC for each item. Keep answers brief.
Test system: Botrytis cinerea
RUN PARAMETERS: 2% malt extract medium, 1.5–2×10^3 spores/ml, room temperature, 3d, visual screening; lowest concentration with no visible growth; at least two independent replicates
Ends that are not written are not given here.

Solved cases below.
# SUBSTANCE, TARGET, MIC
measured = [
    ("KRRLIARILRLAARALVKKR-NH2 [SP13-D]", "Botrytis cinerea", "> 40 µg/mL"),
    ("RKRAARLLKRLV-NH2 [SP2]", "Botrytis cinerea", ">100 µg/mL"),
]

-- ask What value of MIC has been recorded for this entry: LLKALKKLLKKLL-NH2 [SP9]
-- reply >100 µg/mL

###

System: Arabidopsis mesophyll protoplasts
EXPERIMENT SUMMARY: Phytotoxicity on plant protoplasts
Assay type: cell-based
RUN PARAMETERS: 1 h incubation, light microscope
Ends that are not written are not given here.
MEASUREMENT LABEL: phytotoxicity to plant protoplasts (in words)

# SUBSTANCE, RESULT
rows = [
    ("LRFLKKALKKLF-NH2 [SP10-2]", "very low phytotoxicity"),
    ("RKKRLKLLKRLL-NH2 [SP1-1]", "very low phytotoxicity"),
    ("LRIIKKILKKLI-NH2 [SP10-5]", "very low phytotoxicity"),
]
